Conditions: in n-propanol, 323.22 K
READOUT_KIND: solubility (mole fraction)

{"columns": ["TEST_SMILES", "READOUT_KIND", "REPORTED_MEASUREMENT"],
 "data": [
  ["c1nc[nH]n1", "solubility (mole fraction)", 0.283]
]}

---

Settings: in isopropanol, 308.19 K

{"columns": ["TEST_SMILES", "solubility (mole fraction)"],
 "data": [
  ["c1nc[nH]n1", 0.211]
]}

---

Conditions: in ethyl acetate, 333.27 K

{"columns": ["TEST_SMILES", "solubility (mole fraction)"],
 "data": [
  ["c1nc[nH]n1", 0.104]
]}

---

Conditions: in isopropanol, 298.23 K

{"columns": ["TEST_SMILES", "solubility (mole fraction)"],
 "data": [
  ["c1nc[nH]n1", 0.176]
]}

---

Details: in propylene glycol, 353.24 K
READOUT_KIND: solubility (mole fraction)

{"columns": ["TEST_SMILES", "REPORTED_MEASUREMENT"],
 "data": [
  ["c1nc[nH]n1", 0.633]
]}

---

Conditions: in isopropanol, 343.26 K
READOUT_KIND: solubility (mole fraction)

{"columns": ["TEST_SMILES", "READOUT_KIND", "REPORTED_MEASUREMENT"],
 "data": [
  ["c1nc[nH]n1", "solubility (mole fraction)", 0.397]
]}

---

Details: in n-butyl acetate, 343.23 K
READOUT_KIND: solubility (mole fraction)

{"columns": ["TEST_SMILES", "REPORTED_MEASUREMENT"],
 "data": [
  ["c1nc[nH]n1", 0.0955]
]}

---

Conditions: in n-butyl acetate, 318.21 K
READOUT_KIND: solubility (mole fraction)

{"columns": ["TEST_SMILES", "READOUT_KIND", "REPORTED_MEASUREMENT"],
 "data": [
  ["c1nc[nH]n1", "solubility (mole fraction)", 0.0428]
]}

---

Settings: in ethyl formate, 288.23 K

{"columns": ["TEST_SMILES", "solubility (mole fraction)"],
 "data": [
  ["c1nc[nH]n1", 0.0246]
]}

---

Conditions: in ethanol, 323.22 K

{"columns": ["TEST_SMILES", "solubility (mole fraction)"],
 "data": [
  ["c1nc[nH]n1", 0.308]
]}

---

Conditions: in n-butyl acetate, 293.26 K

{"columns": ["TEST_SMILES", "solubility (mole fraction)"],
 "data": [
  ["c1nc[nH]n1", 0.0202]
]}

---

Conditions: in ethanol, 308.14 K

{"columns": ["TEST_SMILES", "solubility (mole fraction)"],
 "data": [
  ["c1nc[nH]n1", 0.228]
]}

---

Details: in n-propanol, 308.23 K

{"columns": ["TEST_SMILES", "solubility (mole fraction)"],
 "data": [
  ["c1nc[nH]n1", 0.208]
]}

---

Settings: in propylene glycol, 333.23 K

{"columns": ["TEST_SMILES", "solubility (mole fraction)"],
 "data": [
  ["c1nc[nH]n1", 0.514]
]}

---

Settings: in n-butyl acetate, 283.2 K

{"columns": ["TEST_SMILES", "solubility (mole fraction)"],
 "data": [
  ["c1nc[nH]n1", 0.0141]
]}
